Tested on: BT-549 breast
Procedure details: NCI-60 one-dose screen, 48 h (100 = growth as untreated, 0 = no growth, -100 = all killed)
Settings: 10 µM unless noted
The panel holds about 83,000 compounds, 20% with a hit somewhere; the sample as a whole holds those more often.
Overview of reported growth across a group of compounds:
Answer with a number only, understood to be in %.

Some compounds with known growth results, for comparison:
| Item smiles | growth / % |
| --- | --- |
| O=C(CCCOc1ccc(Br)cc1)Nc1ncc(Cc2ccc(F)cc2)s1 | 82 |
| C[N+]1=C(/C=C\C=C\c2ccccc2)C(C)(C)c2ccccc21 | 22.5 |
| CCOC(=O)c1nnn(Cc2cc(=O)oc3c2ccc2ccccc23)c1C | 108 |
| Cc1oc2c(Cc3ccc(NC(=O)c4ccc(Cl)cc4)cc3)ncnc2c1C(=O)NO | 103 |
| O=C(Nc1ccccc1C(=O)N/N=C(\c1ccccc1)c1ccccn1)c1ccccc1 | 31.3 |
| O=C(NNC(=S)Nc1ccccc1)c1ccncc1 | 88.1 |

Inquiry: Under BT-549 breast: growth value of `COc1cc2nc3cc([N+](=O)[O-])ccc3c(NCCNCC(C)(C)O)c2cc1OC` ?
Reply text: -75.6

Inquiry: Please tell me: growth of `CC[C@@H]1NC(=O)[C@H]([C@H](O)[C@H](C)C/C=C/c2ccc(CN3C(=O)C(C)=C(C)C3=O)cc2)N(C)C(=O)[C@H](C(C)C)N(C)C(=O)[C@H](CC(C)C)N(C)C(=O)[C@H](CC(C)C)N(C)C(=O)[C@@H](C)NC(=O)[C@H](C)NC(=O)[C@H](CC(C)C)N(C)C(=O)[C@H](C(C)C)NC(=O)[C@H](CC(C)C)N(C)C(=O)CN(C)C1=O` , system BT-549 breast?
Reply text: 82.4

====

Test system: NCI-H322M lung
Procedure details: NCI-60 one-dose screen, 48 h
Settings: 10 µM unless noted
Compounds without any hit were thinned out: in the full panel of roughly 83,000, 20% have a hit. Activity calls are given as the source filed them. How the source made its calls: active means growth percent below 10; inactive means the rest.
Pick one: true for active, false for inactive

Here are 5 molecules together with their reported answers.
| Molecule | Class assignment |
| --- | --- |
| CC12OC(CC(O)C1O)n1c3ccccc3c3c4c(c5c6ccccc6n2c5c31)C(=O)N(CCN1CCOCC1)C4=O (stereo unspecified) | false |
| CN(C)CC1(C)Cc2ccsc2C1O (stereo unspecified) | false |
| CC(C)(C)CC(N)=O | false |
| N=C1/C(=C2\NC3C=CC=CC3S2)C(c2ccc(Cl)cc2)C2C(=O)N(c3ccccc3)C(=S)N12 (stereo unspecified) | false |
| CS(=O)(=O)Nc1cc(-c2ccc3ncnc(Nc4ccc(F)c(Cl)c4)c3c2)cnc1Cl | true |

Inquiry: Dear colleague, could you share the recorded outcome for `Cc1ccc(Cl)cc1N1CCN(C(=O)[C@@H]2C[C@@H]2c2ccc(F)cc2)CC1` when you have a moment?
Reply text: false

Inquiry: For `CC(=O)/C=C/c1ccc(N(C)Cc2ccc(C(C)(C)C)cc2)cc1` , what call appears in the results of this test?
Reply text: true

Inquiry: So what was the verdict on `COc1cc(F)c(/C=C/c2cc(/C=C/c3cc(OC)c(OC)cc3F)n(-c3cc(F)cc(F)c3)n2)cc1OC` in this test?
Reply text: false

Inquiry: Called result for `CC(=O)c1nn(-c2ccccc2)/c(=N/N=Cc2cn(-c3ccccc3)nc2-c2cc3ccccc3oc2=O)s1`
Reply text: false

Inquiry: How was `COC(=O)[C@H]1Cc2c([nH]c3ccccc23)[C@@H](c2cccs2)N1` classified in this test?
Reply text: false

Inquiry: Can you look up the reported call for `OCc1cc(CN2CCCCC2)c(O)c2ncccc12` for me?
Reply text: false
